target: Human mGlu2 (Homo sapiens, UniProt Q14416); assay: mGlu receptor in vitro assay, human mGlu2
Sequence (Q14416 19-872): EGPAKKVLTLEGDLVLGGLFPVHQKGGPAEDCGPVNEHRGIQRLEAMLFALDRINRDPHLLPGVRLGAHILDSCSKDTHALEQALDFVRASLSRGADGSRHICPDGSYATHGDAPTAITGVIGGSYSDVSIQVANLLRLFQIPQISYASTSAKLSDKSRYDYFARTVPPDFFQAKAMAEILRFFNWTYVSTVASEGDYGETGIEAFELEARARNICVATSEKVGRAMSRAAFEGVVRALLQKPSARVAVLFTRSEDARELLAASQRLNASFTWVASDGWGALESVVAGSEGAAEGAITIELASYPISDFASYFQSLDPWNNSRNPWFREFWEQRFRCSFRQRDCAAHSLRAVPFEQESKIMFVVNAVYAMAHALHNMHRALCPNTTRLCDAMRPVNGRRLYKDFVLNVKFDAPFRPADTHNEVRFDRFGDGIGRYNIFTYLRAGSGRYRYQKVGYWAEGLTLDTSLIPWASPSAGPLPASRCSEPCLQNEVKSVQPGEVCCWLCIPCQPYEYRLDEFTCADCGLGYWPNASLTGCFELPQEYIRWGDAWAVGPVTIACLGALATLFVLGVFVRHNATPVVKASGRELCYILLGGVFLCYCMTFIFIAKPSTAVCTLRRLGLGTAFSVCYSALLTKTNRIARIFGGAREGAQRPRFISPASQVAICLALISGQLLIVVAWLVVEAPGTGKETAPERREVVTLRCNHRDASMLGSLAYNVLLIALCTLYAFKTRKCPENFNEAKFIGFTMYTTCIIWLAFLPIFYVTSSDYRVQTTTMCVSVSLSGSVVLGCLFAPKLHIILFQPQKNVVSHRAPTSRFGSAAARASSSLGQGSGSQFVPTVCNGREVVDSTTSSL
outcome_measure: EC50 (µM)

CCCC(=O)c1ccc(OCCC(C)(C)CCOc2cccc(C(=O)O)c2C)c(C)c1O    0.055
CCCC(=O)c1ccc(OCCCCCOc2ccc(C(=O)O)cc2Cl)c(C)c1O    0.021
Cc1c(C(=O)O)cccc1-c1noc(COc2ccc(C(=O)CC(C)(C)C)c(O)c2C)n1    0.048

a = Cc1c(OCCOCCOc2ccc(C(=O)CC(C)(C)C)c(O)c2C)cccc1C(=O)O
b = Cc1c(OCc2cccc(-c3cccc(C(=O)NC#N)c3)c2)ccc(C(=O)CC(C)(C)C)c1O
c = COc1ccc(C(=O)O)cc1OCCCCCCCCCOc1ccc(C(=O)CC(C)(C)C)c(O)c1C
d = CCCC(=O)c1ccc(OCCCCCOc2ccc(Cl)c(C(=O)O)c2)c(C)c1O
e = Cc1c(OCCCCCOc2ccc(C(=O)O)c(Cl)c2)ccc(C(=O)CC(C)C)c1O
Prompt: Order the records so the highest EC50 appears first and the lowest last. List the labels, following the order given in the request.
Response: c, b, a, d, e
(c: 0.71 µM, b: 0.234 µM, a: 0.045 µM, d: 0.025 µM, e: 0.012 µM)

====

target: Rat mGlu2 (Rattus norvegicus); assay: mGlu receptor in vitro assay, thallium flux through GIRK channels, rat mGlu2; details: PAM potency with EC20 glutamate
Sequence (P31421 19-872): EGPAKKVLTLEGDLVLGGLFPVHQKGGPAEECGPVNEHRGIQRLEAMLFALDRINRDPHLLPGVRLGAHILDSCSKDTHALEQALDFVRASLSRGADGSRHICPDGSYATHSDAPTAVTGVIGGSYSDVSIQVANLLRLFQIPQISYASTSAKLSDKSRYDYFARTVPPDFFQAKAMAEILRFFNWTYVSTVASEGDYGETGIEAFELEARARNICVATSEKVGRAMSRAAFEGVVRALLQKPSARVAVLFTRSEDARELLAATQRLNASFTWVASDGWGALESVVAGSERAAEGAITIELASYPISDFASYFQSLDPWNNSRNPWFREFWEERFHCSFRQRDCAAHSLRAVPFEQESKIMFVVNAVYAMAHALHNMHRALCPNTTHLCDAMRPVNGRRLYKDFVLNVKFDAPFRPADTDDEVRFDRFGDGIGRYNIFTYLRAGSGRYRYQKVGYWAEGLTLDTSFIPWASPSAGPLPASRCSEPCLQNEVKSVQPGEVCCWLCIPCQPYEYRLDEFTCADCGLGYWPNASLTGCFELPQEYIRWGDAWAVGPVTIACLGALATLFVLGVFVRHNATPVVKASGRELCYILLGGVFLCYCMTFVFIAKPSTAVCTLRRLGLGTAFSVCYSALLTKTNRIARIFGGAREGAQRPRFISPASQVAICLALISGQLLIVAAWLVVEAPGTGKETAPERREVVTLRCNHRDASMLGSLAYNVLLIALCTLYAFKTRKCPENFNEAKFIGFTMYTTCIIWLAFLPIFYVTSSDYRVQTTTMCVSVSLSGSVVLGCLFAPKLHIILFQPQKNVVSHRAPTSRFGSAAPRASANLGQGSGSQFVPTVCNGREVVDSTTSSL
outcome_measure: EC50 (nM)

CCCC(=O)c1ccc(OCCC(C)(C)CCOc2cccc(C(=O)O)c2C)c(C)c1O [Example 30]    265

a = CCCC(=O)c1ccc(OCCCCCOc2cccc(C(=O)O)c2C)c(C)c1O [Example 13]
b = CCCC(=O)c1ccc(OCCOCCOc2ccc(C(=O)O)c(Cl)c2)c(C)c1O [Example 41]
c = COc1ccc(C(=O)O)cc1OCCCCCCOc1ccc(C(=O)CC(C)(C)C)c(O)c1C [Example 19]
Prompt: Sort by EC50, descending. Write the labels, ordered according to the request.
Response: c, a, b
(c: 288 nM, a: 114 nM, b: 15 nM)

====

target: Human mGlu2 (Homo sapiens); assay: mGlu receptor in vitro assay, human mGlu2; format: cell-based
outcome_measure: EC50 (nM)

CCCC(=O)c1ccc(OCCOCCOc2ccc(C(=O)O)c(Cl)c2)c(C)c1O    8

P = CCCC(=O)c1ccc(OCCCCCOc2ccc(C(=O)O)cc2OC)c(C)c1O
Q = Cc1c(OCCCCSc2cccc(C(=O)O)c2)ccc(C(=O)CC(C)(C)C)c1O
R = Cc1c(OCc2cnc(-c3ccc(C(=O)O)c(F)c3)cn2)ccc(C(=O)CC(C)(C)C)c1O
Prompt: Arrange the 3 compounds from largest to smallest EC50. // respond by listing labels in the order requested
Response: R, Q, P

====

molecular target: UniProtKB Q14416; assay: mGlu receptor in vitro assay, human mGlu2
outcome_measure: EC50 (nM)

A = CCCC(=O)c1ccc(OCCCCOc2ccc(C(=O)O)c(Cl)c2)c(C)c1O
B = COc1ccc(C(=O)O)cc1OCCSCCOc1ccc(C(=O)CC(C)(C)C)c(O)c1C
Prompt: Kindly compare A with B and tell me which has the lower EC50 figure. Selection: enter the item's label.
Response: B
(B: 5 nM, A: 16 nM)

Ref: patent US20250179000A1
